self-splicing fitness (ln) values by entry
# testMethodNotes: self-splicing fitness, log relative to wild type (ln ratio); higher = more splicing; Tetrahymena group I intron in knt gene, E. coli kanamycin selection, DiMSum; sequences stand for … in CUCUCU…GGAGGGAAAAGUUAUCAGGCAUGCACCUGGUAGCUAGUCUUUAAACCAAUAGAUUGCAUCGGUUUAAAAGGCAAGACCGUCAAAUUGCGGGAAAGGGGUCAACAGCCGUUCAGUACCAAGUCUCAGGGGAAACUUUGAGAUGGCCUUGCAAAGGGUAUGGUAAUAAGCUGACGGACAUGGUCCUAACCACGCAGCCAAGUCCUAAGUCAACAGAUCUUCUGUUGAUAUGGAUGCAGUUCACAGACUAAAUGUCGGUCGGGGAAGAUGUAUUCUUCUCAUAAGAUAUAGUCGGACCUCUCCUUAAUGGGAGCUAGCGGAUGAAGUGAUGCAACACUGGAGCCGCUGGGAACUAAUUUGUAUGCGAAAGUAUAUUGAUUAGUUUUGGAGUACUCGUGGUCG;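 further: selection with 25 µg/mL kanamycin versus none on LB agar overnight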
# testConditions: 37 °C
Lab note: jot the number down without any unit.

Please review the following examples before continuing.
GGGCAGCAAUAUUACGCAUA; 0.38
AGCAAGCAAUAUUACGCACA; 0.365
UGUUAGCAAUAUUACGGAUG; -0.39

**Query** Look up and state reported self-splicing fitness (ln) for CACUAGCAAUAUUACGGAGU
**Result** -2.14

**Query** Supply self-splicing fitness (ln) value. Item: UAUAAGCAAUAUUACGCACA
**Result** -0.211

**Query** State, in one line, measured self-splicing fitness (ln) of AAGUAGCAAUAUUACGCUAG
**Result** -1.04

**Query** Let me know recorded self-splicing fitness (ln) for UCUAAGCAAUAUUACGCUAA , thanks.
**Result** -1.84

**Query** Supply measured self-splicing fitness (ln) of CUCAAGCAAUAUUACGACGG in your reply.
**Result** -1.05

**Query** Find the measured self-splicing fitness (ln) of UCGAAGCAAUAUUACGGGUG and report it.
**Result** -0.756

----------
# testMethodNotes: self-splicing fitness, log relative to wild type (ln ratio); higher = more splicing; Tetrahymena group I intron in knt gene, E. coli kanamycin selection, DiMSum; sequences stand for … in CUCUCU…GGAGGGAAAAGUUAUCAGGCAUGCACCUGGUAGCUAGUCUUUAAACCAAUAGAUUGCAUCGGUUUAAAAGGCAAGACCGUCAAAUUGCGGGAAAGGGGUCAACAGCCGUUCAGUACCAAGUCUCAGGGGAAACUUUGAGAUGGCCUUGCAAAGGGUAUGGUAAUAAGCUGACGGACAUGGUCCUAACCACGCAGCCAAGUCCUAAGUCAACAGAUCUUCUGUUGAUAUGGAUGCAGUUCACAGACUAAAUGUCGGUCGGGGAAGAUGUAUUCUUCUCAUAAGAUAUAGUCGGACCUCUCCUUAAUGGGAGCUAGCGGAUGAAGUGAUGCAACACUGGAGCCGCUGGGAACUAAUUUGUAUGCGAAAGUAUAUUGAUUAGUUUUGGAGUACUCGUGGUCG
# testConditions: 30 °C
Would you please tag the item satisfied when its self-splicing fitness (ln) is -2 or above, and not satisfied when it is below?

UACGAGCAAUAUUACGUUUG; not satisfied

**Query** Hi, just wondering whether CUGCAGCAAUAUUACGGCAU shows self-splicing fitness (ln) of -2 or higher.
**Result** satisfied

**Query** Given GGCGAGCAAUAUUACGUUGA , state whether its self-splicing fitness (ln) is at least -2.
**Result** satisfied

----------
# testMethodNotes: self-splicing fitness, log relative to wild type (ln ratio); higher = more splicing; Tetrahymena group I intron in knt gene, E. coli kanamycin selection, DiMSum; sequences stand for … in CUCUCU…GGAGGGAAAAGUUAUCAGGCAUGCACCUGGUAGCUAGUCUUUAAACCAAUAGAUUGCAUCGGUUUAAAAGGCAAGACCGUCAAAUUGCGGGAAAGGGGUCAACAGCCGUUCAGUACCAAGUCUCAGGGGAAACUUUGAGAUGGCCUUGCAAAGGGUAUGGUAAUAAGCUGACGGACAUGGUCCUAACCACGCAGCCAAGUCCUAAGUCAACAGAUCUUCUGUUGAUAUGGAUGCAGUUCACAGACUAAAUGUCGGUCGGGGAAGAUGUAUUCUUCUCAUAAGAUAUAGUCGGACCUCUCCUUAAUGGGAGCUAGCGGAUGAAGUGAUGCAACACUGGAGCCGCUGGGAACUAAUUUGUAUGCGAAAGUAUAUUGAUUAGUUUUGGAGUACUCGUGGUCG
# testConditions: 30 °C
Listed below: self-splicing fitness (ln) values for each entry.
The answer should be a number; do not append a unit.

ACGAAGCAAUAUUACGCGCC; -0.967
UGUGAGCAAUAUUACGGUUU; -3.66
GAUGAGCAAUAUUACGCUUU; -3.32

**Query** Consider the sequence ACAAAGCAAUAUUACGCUUC and give its recorded self-splicing fitness (ln).
**Result** -3.15

**Query** Give the reported value of self-splicing fitness (ln) for this record: AUACAGCAAUAUUACGGAUA
**Result** -2.52

----------
Recorded self-splicing fitness (ln), one value per entry.
# testMethodNotes: self-splicing fitness, log relative to wild type (ln ratio); higher = more splicing; Tetrahymena group I intron in knt gene, E. coli kanamycin selection, DiMSum; sequences stand for … in CUCUCU…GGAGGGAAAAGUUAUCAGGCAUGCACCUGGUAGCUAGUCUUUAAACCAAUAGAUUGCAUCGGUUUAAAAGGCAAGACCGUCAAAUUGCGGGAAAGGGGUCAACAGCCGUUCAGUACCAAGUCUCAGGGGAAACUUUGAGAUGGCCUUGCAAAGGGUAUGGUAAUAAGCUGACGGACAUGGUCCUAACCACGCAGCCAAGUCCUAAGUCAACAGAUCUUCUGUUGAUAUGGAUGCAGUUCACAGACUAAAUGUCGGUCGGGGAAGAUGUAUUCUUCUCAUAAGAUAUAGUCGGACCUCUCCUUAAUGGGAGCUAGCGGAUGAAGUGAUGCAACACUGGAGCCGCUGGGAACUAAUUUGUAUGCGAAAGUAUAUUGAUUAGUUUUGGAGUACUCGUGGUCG
# testConditions: 30 °C

UGAUAGCAAUAUUACGAGUA; -1.71
ACCCAGCAAUAUUACGGAAA; -0.977
GCUUAGCAAUAUUACGGGCA; -2.24

As a next step, examine the sequence that follows.
**Query** Supply measured self-splicing fitness (ln) of GUCAAGCAAUAUUACGAAGC in your reply.
**Result** -3.84

----------
Recorded self-splicing fitness (ln) by entry
# testMethodNotes: self-splicing fitness, log relative to wild type (ln ratio); higher = more splicing; Tetrahymena group I intron in knt gene, E. coli kanamycin selection, DiMSum; sequences stand for … in CUCUCU…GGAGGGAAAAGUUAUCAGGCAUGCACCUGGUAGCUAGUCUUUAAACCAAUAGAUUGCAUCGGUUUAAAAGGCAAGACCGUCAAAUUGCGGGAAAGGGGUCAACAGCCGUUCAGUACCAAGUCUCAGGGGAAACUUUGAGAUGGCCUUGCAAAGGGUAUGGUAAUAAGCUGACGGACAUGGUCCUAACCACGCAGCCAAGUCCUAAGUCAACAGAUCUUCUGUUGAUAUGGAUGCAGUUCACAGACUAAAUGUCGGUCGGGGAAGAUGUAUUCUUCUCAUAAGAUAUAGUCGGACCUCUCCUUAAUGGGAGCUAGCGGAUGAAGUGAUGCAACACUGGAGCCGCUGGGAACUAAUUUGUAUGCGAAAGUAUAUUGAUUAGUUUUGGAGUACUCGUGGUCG
# testConditions: 37 °C
Please give only the number in your answer, with no unit.

**Query** Please give measured self-splicing fitness (ln) of the following entry: UCAGAGCAAUAUUACGUAUA
**Result** -2.44

**Query** Tell us which self-splicing fitness (ln) value is on record for CACAAGCAAUAUUACGAUAG
**Result** 0.242

**Query** // Input: AAGAAGCAAUAUUACGGUUG . Output its self-splicing fitness (ln) only.
**Result** -1.32

**Query** Complete the entry with self-splicing fitness (ln) for GAAAAGCAAUAUUACGUGGC
**Result** -2.06

----------
self-splicing fitness (ln) reference
# testMethodNotes: self-splicing fitness, log relative to wild type (ln ratio); higher = more splicing; Tetrahymena group I intron in knt gene, E. coli kanamycin selection, DiMSum; sequences stand for … in CUCUCU…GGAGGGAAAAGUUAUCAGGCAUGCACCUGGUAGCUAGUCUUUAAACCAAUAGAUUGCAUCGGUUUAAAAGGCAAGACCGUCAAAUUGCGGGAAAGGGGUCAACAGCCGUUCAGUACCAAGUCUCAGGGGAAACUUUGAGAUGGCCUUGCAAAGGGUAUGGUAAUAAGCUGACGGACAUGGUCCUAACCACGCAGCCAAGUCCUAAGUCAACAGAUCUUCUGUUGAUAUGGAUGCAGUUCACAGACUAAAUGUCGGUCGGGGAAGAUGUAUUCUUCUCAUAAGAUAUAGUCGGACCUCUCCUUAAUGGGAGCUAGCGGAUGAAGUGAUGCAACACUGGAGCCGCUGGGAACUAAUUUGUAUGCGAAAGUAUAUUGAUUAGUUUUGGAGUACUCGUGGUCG
# testConditions: 30 °C

Example sequences with recorded self-splicing fitness (ln):
GCUGAGCAAUAUUACGCGGG; -2.93
ACACAGCAAUAUUACGGUCA; -0.813
AGUCAGCAAUAUUACGGCAU; 0.126
CCGCAGCAAUAUUACGUACU; -4.17
UGUGAGCAAUAUUACGUUGA; -2.82
ACCUAGCAAUAUUACGAUAG; -3.99
CCCAAGCAAUAUUACGUAUU; -3.8
UCCCAGCAAUAUUACGCAGA; -0.882
ACAAAGCAAUAUUACGCCUA; -1.61
UAUCAGCAAUAUUACGAAAA; -0.436

**Query** Annotate the sequence UGUGAGCAAUAUUACGUAGG with its measured self-splicing fitness (ln).
**Result** -3.5

**Query** Assign self-splicing fitness (ln) to the following record: AGCCAGCAAUAUUACGAGGU
**Result** -3.51

**Query** Item CAUAAGCAAUAUUACGCAUG : provide self-splicing fitness (ln)
**Result** -1.55

**Query** Give a short answer stating reported self-splicing fitness (ln) for GGUGAGCAAUAUUACGGGAU .
**Result** -3.28
